// provenance: patent US20220056111A1

Molecular target: T1, HcoV-OC43 S protein (HcoV-OC43, UniProt P36334 14-1297)
T1 sequence: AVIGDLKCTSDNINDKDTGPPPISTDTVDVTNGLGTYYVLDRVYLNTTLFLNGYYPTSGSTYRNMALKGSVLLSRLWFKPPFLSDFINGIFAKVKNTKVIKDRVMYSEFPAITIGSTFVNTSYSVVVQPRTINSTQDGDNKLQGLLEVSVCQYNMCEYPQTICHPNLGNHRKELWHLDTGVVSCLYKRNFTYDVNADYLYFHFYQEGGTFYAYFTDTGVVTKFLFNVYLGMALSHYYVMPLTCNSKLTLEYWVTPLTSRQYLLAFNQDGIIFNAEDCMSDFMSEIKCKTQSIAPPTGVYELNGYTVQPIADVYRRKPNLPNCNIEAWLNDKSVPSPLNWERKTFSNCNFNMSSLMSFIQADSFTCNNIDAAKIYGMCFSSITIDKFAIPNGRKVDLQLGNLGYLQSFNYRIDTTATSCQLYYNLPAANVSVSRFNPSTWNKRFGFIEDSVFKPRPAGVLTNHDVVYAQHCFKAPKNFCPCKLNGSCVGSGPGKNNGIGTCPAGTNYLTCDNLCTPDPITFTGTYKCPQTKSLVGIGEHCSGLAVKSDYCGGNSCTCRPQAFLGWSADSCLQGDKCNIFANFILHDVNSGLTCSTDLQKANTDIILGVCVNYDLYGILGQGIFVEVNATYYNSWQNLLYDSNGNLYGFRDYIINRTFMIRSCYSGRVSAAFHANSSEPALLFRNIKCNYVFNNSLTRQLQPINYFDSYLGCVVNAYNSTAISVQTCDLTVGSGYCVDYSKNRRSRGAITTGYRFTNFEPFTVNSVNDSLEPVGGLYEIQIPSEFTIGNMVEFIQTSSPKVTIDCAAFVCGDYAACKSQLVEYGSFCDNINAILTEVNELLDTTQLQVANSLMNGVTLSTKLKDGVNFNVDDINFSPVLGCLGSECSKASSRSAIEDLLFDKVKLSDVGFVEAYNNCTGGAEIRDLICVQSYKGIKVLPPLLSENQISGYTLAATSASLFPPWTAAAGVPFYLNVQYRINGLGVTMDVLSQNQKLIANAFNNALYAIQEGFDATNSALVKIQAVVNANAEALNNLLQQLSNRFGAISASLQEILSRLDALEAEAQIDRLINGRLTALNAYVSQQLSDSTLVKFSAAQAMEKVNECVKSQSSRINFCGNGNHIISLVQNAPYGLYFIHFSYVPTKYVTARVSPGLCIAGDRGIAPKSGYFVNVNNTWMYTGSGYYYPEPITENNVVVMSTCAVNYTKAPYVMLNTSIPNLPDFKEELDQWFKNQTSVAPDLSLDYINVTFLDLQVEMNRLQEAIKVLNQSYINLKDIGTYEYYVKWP
Test: direct ELISA, OD450

- binder: "rabbit monoclonal antibody 1D2 against the SARS-CoV-2 S1 (antibody, V domains shown) VH: QSVEESGGRLVTPGTSLTLTCTVSGIDIETYWMSWVRQAPGKGLEWIAIITSHDHSGYANWAEGRFTISKTSTTVTLTITDLQPSDTGTYFCAKDVGHSTYDLWGPGTLVTVSS VL: AAVLTQTPSPVSAAVGGTVTISCQSSESVLSNNRLSWYQQKPGQPPKLLIYAASTLASGVPSRFKGRGSGTQFTLTISDVQCDDAAMYVCAGAFSGSSDTRAFGGGTEVVVKG"
  binding result: "no binding"
- binder: "rabbit monoclonal antibody 5E1 against the SARS-CoV-2 S1 (antibody, V domains shown) VH: QSVEESGGRLVTPGTPLTLTCTVSGIDLSSYAMGWVRQAPGKGLEYIGIIYISGLTYYASWAKGRFTISKTSTTVDLKIPSPTTEDTATYFCARGEYNSHSHYLLWGPGTLVTVSS VL: AYDMTQTPSSVSEPVGGTVSIKCQASQNIYSNLAWYQQKPGQRPKLLIYDASQLASGVPSRFKGSGSGTEYTLTISGVECADAATYYCQQGFESSDIFNVFGGGTEVVVKG"
  binding result: "no binding"
- binder: "rabbit monoclonal antibody 1H1 against the SARS-CoV-2 S1 (antibody, V domains shown) VH: QSLEESGGDLVKPGASLTLTCTASGFSFSSGYDMCWVRQAPGKGLEWIACIGTGSSGNIYYASWAKGRFTISKTSSTTVTLQMTSLTAADTATYFCARDDADYAGPDYFNLWGPGTLVTVSS VL: DIVMTQTPASVSEPVGGTVTIKCQASESISNWLAWYQQKPGQPPKLLIYAAFTLASGVPSRFKGSGSGTQFTLTINGVECADAATYYCQQTYSSRDVDNVFGGGTEVVVKG"
  binding result: "no binding"
